Target: postsynaptic muscarinic cholinergic receptors on intestinal (ileal-longitudinal) smooth muscle (Cavia porcellus, UniProt H0W1Z3)
Construct: The longitudinal muscle, with the myenteric plexus attached, is separated from the underlying circular muscle; from tissue; host or cells: guinea pig ileum, longitudinal muscle strip with myenteric plexus attached
Sequence (H0W1Z3 1-590): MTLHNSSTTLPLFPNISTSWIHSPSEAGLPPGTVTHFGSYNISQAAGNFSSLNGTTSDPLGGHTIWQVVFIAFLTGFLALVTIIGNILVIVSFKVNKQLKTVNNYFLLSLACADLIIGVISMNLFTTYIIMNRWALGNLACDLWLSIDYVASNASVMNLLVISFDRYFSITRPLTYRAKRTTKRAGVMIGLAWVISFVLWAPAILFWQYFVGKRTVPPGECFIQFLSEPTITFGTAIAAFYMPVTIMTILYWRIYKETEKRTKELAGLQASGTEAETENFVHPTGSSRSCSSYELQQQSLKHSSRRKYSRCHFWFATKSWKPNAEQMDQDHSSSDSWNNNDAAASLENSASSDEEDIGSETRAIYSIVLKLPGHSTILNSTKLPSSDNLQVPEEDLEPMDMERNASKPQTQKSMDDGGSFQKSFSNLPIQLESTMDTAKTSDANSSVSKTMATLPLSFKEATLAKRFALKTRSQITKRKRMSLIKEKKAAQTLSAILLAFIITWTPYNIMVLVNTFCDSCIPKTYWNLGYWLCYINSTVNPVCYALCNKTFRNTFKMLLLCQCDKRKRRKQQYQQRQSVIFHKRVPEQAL
Assay: Antimuscarinic Test Protocol: antagonism of carbachol-induced contraction of ileum strips (Table 1)
Assay type: cell-based, guinea pig
Conditions: carbachol as agonist, read-out: Anti-muscarinic Activity Kb
Counter-ions that a name gives are not always drawn.
MEASURE: Kb (nM)

>  <COMPOUND>
Cc1cc(C)n(CC2CC(c3ccccc3)(c3ccccc3)C(=O)O2)n1 (centres unmarked) [hydrochloride]

>  <ENDPOINT_UNIT>
nM

>  <Kb>
1000

$$$$
>  <COMPOUND>
C[n+]1cccn1CC1CC(c2ccccc2)(c2ccccc2)C(=O)O1 (centres unmarked) [hydrate]

>  <ENDPOINT_UNIT>
nM

>  <Kb>
100

$$$$

P. Cc1ccn(CC2CC(c3ccccc3)(c3ccccc3)C(=O)O2)[n+]1C (centres unmarked) [hydrate]
Q. Cc1ccn(CC2CC(c3ccccc3)(c3ccccc3)C(=O)O2)n1 (centres unmarked)
R. O=C1OC(Cn2cccn2)CC1(c1ccccc1)c1ccccc1 (centres unmarked)
Order the records by Kb, with each subsequent value no larger than the one before. Lab note: final answer is the ordered label list.
Q, P, R

---

Target: postsynaptic muscarinic cholinergic receptors on intestinal (ileal-longitudinal) smooth muscle (Cavia porcellus)
Construct: The longitudinal muscle, with the myenteric plexus attached, is separated from the underlying circular muscle; from tissue; host or cells: guinea pig ileum, longitudinal muscle strip with myenteric plexus attached
Assay: Antimuscarinic Test Protocol: antagonism of carbachol-induced contraction of ileum strips (Table 1)
Format: cell-based, guinea pig
Conditions: carbachol as agonist, read-out: Anti-muscarinic Activity Kb
MEASURE: Kb (nM)

Before answering, review these 3 worked examples.
>  <COMPOUND>
CC[n+]1cccn1CC1CC(c2ccccc2)(c2ccccc2)C(=O)O1 (centres unmarked)

>  <ENDPOINT_UNIT>
nM

>  <Kb>
49

$$$$
>  <COMPOUND>
CC[n+]1c(C)ccn1CC1CC(c2ccccc2)(c2ccccc2)C(=O)O1 (centres unmarked) [hydrate]

>  <ENDPOINT_UNIT>
nM

>  <Kb>
52

$$$$
>  <COMPOUND>
Cc1cn(CC2CC(c3ccccc3)(c3ccccc3)C(=O)O2)[n+](C)c1 (centres unmarked) [hydrate]

>  <ENDPOINT_UNIT>
nM

>  <Kb>
117

$$$$

a. Cc1cnn(CC2CC(c3ccccc3)(c3ccccc3)C(=O)O2)c1 (centres unmarked)
b. CC[n+]1cc(C)cn1CC1CC(c2ccccc2)(c2ccccc2)C(=O)O1 (centres unmarked) [hydrate]
Rank a against b by their Kb values and give the higher one. Which one? Tell me its label.
a
